Taken from ChEMBL document CHEMBL1201862.

- Test system: OVCAR-3
- Test protocol: NCI tumour cell line growth inhibition, 48 h
Active and inactive are the calls of the source. No stated cut-off is given here; in the data, active = GI50 up to about 1.1 µM and inactive = higher. Non-standard residues stand in square brackets, D forms with d. Residues, ends and D or L forms follow the SMILES beside them. *: point of attachment. Phe(4-NO2) = N[CH](Cc1ccc([N+](=O)[O-])cc1)C(=O)O; Boc = CC(C)(C)OC(=O)*
In this exercise, the only acceptable responses are active, inactive

{"Molecule": "Cc1cccc(NC(=O)O/N=C(\\Cl)C(C)C)c1", "Discrete label": "inactive"}

## Input Fill in: this test's call for CC12CCC(=O)N1c1cncnc1N2 (stereo unspecified) is ___
## Output inactive

## Input // repeat for "C/C(=N/N)c1sc(-c2nc(C)c(/C(C)=N\N)s2)nc1C" and report
## Output inactive

## Input Another: CC(=O)Oc1c2c(c(CC=C(C)C)c3c1C(=O)C1=C[C@@H]4CC5C(C)(C)OC(C/C=C(/C)C(=O)O)(C4=O)[C@@]15O3)OC(C)(CCC=C(C)C)C=C2 (stereo partly specified)
## Output active

## Input Okay, and COC(=O)CCC(NC(=O)OC(C)(C)C)C(=O)NC(Cc1ccc([N+](=O)[O-])cc1)C(=O)NC(CCC(=O)OC)C(=O)OC (stereo unspecified) (Boc-Glu(OMe)-[Phe(4-NO2)]-Glu(OMe)-OMe; configuration not given here) ?
## Output inactive

## Input What do you have for "Cn1c(=O)c2ccc(-c3ccc(Br)cc3)nc2n(C)c1=O" ?
## Output inactive

---

- Tested on: HOP-18
- Test protocol: NCI tumour cell line growth inhibition, 48 h
Activity calls are given as the source filed them. No stated cut-off is given here; in the data, active = GI50 up to about 1.1 µM and inactive = higher.
I would appreciate it if you answered using one of these outcomes: true = active, false = inactive

Solved cases below.
{"Compound": "Nc1nc(=O)n(CC(O)CO)s1 (stereo not drawn)", "Discrete label": "false"}
{"Compound": "O=C(O)CCCc1ccc(N(CCCl)CCCl)cc1", "Discrete label": "false"}
{"Compound": "COc1cccc2c1C(=O)c1c(O)c3c(c(O)c1C2=O)C[C@@](O)(C(C)=O)C[C@@H]3OC1CC(N)C(O)C(C)O1 (stereo partly drawn)", "Discrete label": "true"}
{"Compound": "O=C(c1ccccc1)c1nnc(C(=O)c2ccccc2)nn1", "Discrete label": "false"}
{"Compound": "CC1=NC(C(C)C)C(=O)O1 (stereo not drawn)", "Discrete label": "false"}
{"Compound": "Cc1cc(NS(=O)(=O)c2ccc(Nc3c4ccccc4nc4c(C(=O)N5CCN(CCO)CC5)cccc34)cc2)no1", "Discrete label": "false"}

## Input Query: recorded result category for "C[Si](C)(C)CC(N)=O" in this test
## Output false

## Input Next entry: "COc1ccc(C)cc(O)c1=O"
## Output false

## Input Another compound: "Nc1ccccc1C(=O)NC(=O)Nc1ccc(Oc2ncc(Br)cn2)c(Cl)c1"
## Output false

## Input What do you get for "CCCn1c(SCCSc2c3ccccc3c(-c3nc(F)nc(F)n3)n2CCC)c2ccccc2c1-c1nc(F)nc(F)n1" ?
## Output false

## Input For "O=C(O)c1ccccc1NS(=O)(=O)c1ccc(Cl)cc1" then?
## Output false

## Input // same read-out, input: "OC(c1ccccc1)(c1ccccc1)c1ccncc1"
## Output false

## Input Next record, please: "COc1ccc(/C(Cl)=C(/c2ccc(O)cc2)c2ccc(OCCN(C)C)cc2)cc1"
## Output false

## Input Lookup C=C1C(=O)OC2CC(C)C3C=CC(=O)C3CC12 (stereo not drawn)
## Output false

## Input Please answer likewise for "Cc1ccccc1/N=N/c1c(-c2ccccc2)nn(C(=O)CC(=O)Nc2cccc(Cl)c2)c1-c1ccccc1"
## Output false

## Input Could you do the same for "COc1cc2c(Cc3cc(OCc4ccccc4)ccc3N)nccc2c(OC)c1OC" , please?
## Output false

## Input Similarly, [O-][S+]1c2ccccc2NC(c2ccc3ccccc3c2)CC1c1ccccc1 (stereo not drawn) ?
## Output false

---

- System: LOX IMVI
- Test protocol: NCI tumour cell line growth inhibition, 48 h
The source made the active and inactive calls. Cut-off read from the data, not from the text of the source: active = GI50 up to about 1.1 µM and inactive = higher.
Answer with one of the outcomes given here: active, inactive

Here's what some known entries look like.
{"Chemical smiles": "CC(=O)O[C@H]1C(=O)[C@@]2(C)[C@H]([C@H](OC(=O)c3ccccc3)[C@]3(O)C[C@H](OC(=O)[C@H](O)[C@@H](NC(=O)c4ccc(N)cc4)c4ccccc4)C(C)=C1C3(C)C)[C@]1(OC(C)=O)CO[C@@H]1C[C@@H]2O", "Assayed system": "LOX IMVI", "Discrete label": "active"}
{"Chemical smiles": "OB(O)c1ccccc1C#Cc1ccccc1B(O)O", "Assayed system": "LOX IMVI", "Discrete label": "inactive"}

## Input What did the test return for "O=S(O)CCCCSSCc1ccccc1CSSCCCCS(=O)O" ?
## Output inactive

## Input Moving on to the next compound: "CSc1ncnc2c1CCN2"
## Output inactive

---

- Test system: SK-MEL-28
- Test protocol: NCI tumour cell line growth inhibition, 48 h
Active and inactive are the calls of the source. No stated cut-off is given here; in the data, active = GI50 up to about 1.1 µM and inactive = higher.
Please reply with one of these outcomes: y = active, n = inactive

## Input Please state the recorded outcome for this compound: "CC(=O)/C(=C/n1c(=S)[nH]c2ccccc21)C(=O)Nc1ccccc1C"
## Output n

---

Examples of molecules with documented GI50 follow.
- System: EKVX
- Test protocol: NCI tumour cell line growth inhibition, 48 h
Active and inactive are the calls of the source. Rule as the data show it: active = GI50 up to about 1.1 µM and inactive = higher.

See these solved cases before continuing.
{"Molecule": "COc1cc(OC)c2nc3occc3c(OC)c2c1", "GI50": "64.7 µM (inactive)"}
{"Molecule": "Cn1c(-c2cccs2)cc(-c2cccs2)c1-c1ccsc1", "GI50": "> 100 µM (inactive)"}
{"Molecule": "CCCCCc1nnc(NS(=O)(=O)c2ccc(NC(=O)OCC(C)C)cc2)s1", "GI50": "33.3 µM (inactive)"}
{"Molecule": "Cn1c(=O)[nH]c2c(c1=O)C(=O)CN2", "GI50": "> 100 µM (inactive)"}
{"Molecule": "O=C(CC1(O)C(=O)Nc2c(Cl)cc(Cl)cc21)c1cccc2ccccc12 (stereo unspecified)", "GI50": "16 µM (inactive)"}

Now for a further molecule.
## Input // query GI50 value for entry "N#Cc1sc2c(c1OC(=O)c1ccc(C(F)(F)F)cc1)c(=O)n(-c1ccccc1)c(=S)n2-c1ccccc1"
## Output 24.9 µM (inactive)

---

- Tested on: SK-MEL-5
- Test protocol: NCI tumour cell line growth inhibition, 48 h
The source made the active and inactive calls. Rule as the data show it: active = GI50 up to about 1.1 µM and inactive = higher.
GI50 for assorted compounds

Sample records with GI50:
{"Compound": "O=C(Nc1ccc(Cl)cc1)c1cccc([N+](=O)[O-])c1O", "Quantity": "GI50", "Observed value": "1.75 µM (inactive)"}
{"Compound": "CC1=C2C(=CO[C@H](C)[C@H]2C)C(O)=C(C(=O)O)C1=O [CITRININ]", "Quantity": "GI50", "Observed value": "12.8 µM (inactive)"}
{"Compound": "O=C1C[C@@H]2[C@@H](c3ccccc3)[C@@H]3C(=O)c4ccccc4NC(=O)[C@H]3[C@]2(O)c2ccccc2N1", "Quantity": "GI50", "Observed value": "> 100 µM (inactive)"}
{"Compound": "O=C(NC1CCCCC1)N1CCNC1=S", "Quantity": "GI50", "Observed value": "> 100 µM (inactive)"}
{"Compound": "C[C@@H]1CC[C@@]2(C)OC(c3ccccc3)[C@H](CO)N2C1=O (some centres not stated)", "Quantity": "GI50", "Observed value": "> 100 µM (inactive)"}
{"Compound": "N/C(=N\\OC(=O)NC(Cl)=C(Cl)Cl)c1cc(C(F)(F)F)cc(C(F)(F)F)c1", "Quantity": "GI50", "Observed value": "26.8 µM (inactive)"}
{"Compound": "Cc1n[n+](Cc2ccccc2)c2sc(N)nn12", "Quantity": "GI50", "Observed value": "39.4 µM (inactive)"}
{"Compound": "COC(=O)c1c2c(cc3c1CC1(Cc4cc5c(cc4C1)CCC5)C3)CCC2", "Quantity": "GI50", "Observed value": "> 100 µM (inactive)"}

## Input Given the entry "Clc1ccc(-c2nc3cc(Cl)ccc3[nH]2)cc1" , what GI50 was observed with SK-MEL-5?
## Output 32.7 µM (inactive)

## Input Entry NC(=O)/N=C1\NC(Cc2ccccc2)C(=O)N1Cc1ccccc1 (configuration not stated) please
## Output > 100 µM (inactive)

## Input What about this compound? "Oc1nnnc2c1sc1ncccc12"
## Output > 100 µM (inactive)

---

- Test system: HCT-15
- Test protocol: NCI tumour cell line growth inhibition, 48 h
Measured GI50 values are reported for all entries that follow.
# output: bare number, implied unit µM

{"Compound": "CCCCCCc1ccc(C(=O)NO)cc1", "Uom": "µM", "GI50": 12.6}
{"Compound": "CCN(CC)CCn1ncc2ccc3c(c(=O)c4cccnc4n3CCN(CC)CC)c21", "Uom": "µM", "GI50": 0.743}
{"Compound": "O=C1CC(Nc2ccccc2)c2c(Cl)sc(Cl)c21 (stereo unspecified)", "Uom": "µM", "GI50": 0.767}
{"Compound": "O=C1/C(=C/Cc2ccco2)N=C(c2ccccc2)N1c1nc2ccc(Sc3ccccc3)cc2[nH]1", "Uom": "µM", "GI50": 30.5}
{"Compound": "Cc1cc(NS(=O)(=O)c2ccc(NC(=O)c3ccc4nc5ccccc5c(Nc5ccc(S(=O)(=O)N=C(N)N)cc5)c4c3)cc2)no1", "Uom": "µM", "GI50": 15.4}

Here's the next entry for you.
## Input Could you share what GI50 was measured for N#CC(C(=O)CCC(=O)Nc1ccc(Cl)cc1)c1ccccc1Cl (stereo unspecified) , tested on HCT-15?
## Output 21
